Parameter viability at 4 days, 10 uM: see the listing below.
Assay: Neurotoxicity assay: MTS viability of primary cortical neuronal cultures
Assay type: cell-based, mouse
Settings: BL6Jx129sv, mouse, primary cortical neuronal cultures, Neuronal cells, test compound 10 uM; read-out: Cytotoxicity (% viable at 1 and 10 uM)

{"columns": ["COMPOUND", "UNIT OF MEASUREMENT", "viability at 4 days, 10 uM"],
 "data": [
  ["Oc1cccc2c(=S)n(Cc3ccccn3)cnc12", "%", 90],
  ["Cc1cccc(-c2cc(Cl)c3cccnc3c2O)c1", "%", 73],
  ["O=c1c2c(Cl)cc(Cl)c(O)c2ncn1Cc1ccccn1", "%", 98],
  ["O=C(CNC(=O)c1cc(O)c2cccc(O)c2n1)NCCc1c[nH]cn1", "%", 89],
  ["O=C(NCCc1c[nH]cn1)c1ccc2cccc(O)c2n1", "%", 100],
  ["Oc1c(-c2ccccc2)cc(-c2ccccc2)c2cccnc12", "%", 26],
  ["CC(=O)NCc1ccc2cccc(O)c2n1", "%", 91],
  ["Oc1cccc2ccc(-n3cncn3)nc12", "%", 97],
  ["Oc1cccc2ccc(CN(Cc3ccccn3)Cc3ccccn3)nc12", "%", 23],
  ["CCCCn1cnc2c(O)c(Cl)cc(Cl)c2c1=O", "%", 85],
  ["OCCN1C=Nc2c(O)c(Cl)cc(Cl)c2C1", "%", 96],
  ["O=C(NCc1ccccn1)c1ccc2cccc(O)c2n1", "%", 85],
  ["Oc1c(N2CCOCC2)ncc2cccnc12", "%", 98],
  ["Oc1c(I)cc(I)c2cccnc12", "%", 95],
  ["CSc1ccccc1-c1ccc2cccc(O)c2n1", "%", 112],
  ["O=c1c(-c2ccc(Cl)cc2)cnc2c(O)cccn12", "%", 42],
  ["Cc1noc(C)c1Cn1cnc2c(O)c(Cl)cc(Cl)c2c1=O", "%", 72],
  ["O=c1c2c(Cl)cc(Cl)c(O)c2ncn1CCN1CCOCC1", "%", 81],
  ["O=c1c2c(Cl)cc(Cl)c(O)c2ncn1CCN1CCCC1", "%", 91],
  ["O=c1c2c(Cl)cc(Cl)c(O)c2ncn1-c1ccc(F)cc1", "%", 67],
  ["CCn1nccc1-n1cnc2c(O)c(Cl)cc(Cl)c2c1=O", "%", 94],
  ["Oc1c(I)cc(-c2ccccc2C(F)(F)F)c2cccnc12", "%", 90],
  ["Oc1cccc2ccc(CN(Cc3ccccn3)Cc3nccs3)nc12", "%", 38],
  ["Cc1ccccc1-c1cc(Cl)c2cccnc2c1O", "%", 100],
  ["Oc1cccc2ccc(CN(CCc3c[nH]cn3)Cc3c[nH]cn3)nc12", "%", 26],
  ["Oc1c(-c2ccc(F)cc2F)cc(Cl)c2cccnc12", "%", 42],
  ["O=c1c2c(Cl)cc(Cl)c(O)c2ncn1CCc1ccccn1", "%", 92],
  ["N=C(N)NCc1ccc2cccc(O)c2n1", "%", 89],
  ["Oc1c(Cl)cc(-c2cccnc2)c2cccnc12", "%", 84],
  ["CCn1cnc2c(O)c(Cl)cc(Cl)c2c1=O", "%", 58],
  ["CN1CCN(n2cnc3c(O)c(Cl)cc(Cl)c3c2=O)CC1", "%", 91],
  ["Oc1ccc(Cl)c2cccnc12", "%", 85],
  ["O=c1c2c(Cl)cc(Cl)c(O)c2ncn1N1CCCCC1", "%", 51],
  ["Nc1cnc2c(O)c(Cl)cc(Cl)c2c1", "%", 10],
  ["O=c1c2c(Cl)cc(Cl)c(O)c2ncn1-c1ccccn1 [drawing 171]", "%", 81],
  ["NCc1ccc2cccc(O)c2n1", "%", 97],
  ["CN(C)Cc1ccc2c(Cl)cc(Cl)c(O)c2n1.Cl [drawing 119]", "%", 72],
  ["Oc1cccc2ccc(CNCCc3c[nH]cn3)nc12", "%", 43],
  ["Cc1ccc2cccc(O)c2n1", "%", 58],
  ["Br.CCCn1cnc2c(O)c(Cl)cc(Cl)c2c1=O", "%", 83],
  ["O=c1c(-c2ccc(Cl)cc2)cnc2c(O)c(I)ccn12", "%", 33],
  ["Cc1cccc(-c2ccc3cccc(O)c3n2)n1", "%", 58],
  ["Oc1c(Cl)cc(Cl)c2cc(Cl)cnc12", "%", 55],
  ["O=c1c2c(Cl)cc(Cl)c(O)c2ncn1N1CCCC1", "%", 88],
  ["O=c1[nH]cnc2c(O)c(Cl)cc(Cl)c12", "%", 93],
  ["O=[N+]([O-])c1cccc(-c2cc(Cl)c3cccnc3c2O)c1", "%", 78],
  ["O=C(Nc1ccccc1O)c1ccc2cccc(O)c2n1", "%", 92],
  ["CCNCc1ccc2c(Cl)cc(Cl)c(O)c2n1.Cl", "%", 56],
  ["Oc1c(-c2cc(F)cc(F)c2)cc(Cl)c2cccnc12", "%", 66],
  ["O=c1c2c(Cl)cc(Cl)c(O)c2ncn1N1CCOCC1", "%", 70],
  ["COc1c(Cl)cc(Cl)c2c(=O)n(N)cnc12", "%", 93],
  ["Cc1ccccc1-c1cc(I)c(O)c2ncccc12", "%", 38]
]}
